Test system: Strept. hemoly. Todd Hewitt
Assay: MIC, diffusion method in gelose medium at pH 7 (Table I)
Format: cell-based
Settings: Strept. hemoly. Todd Hewitt, pH 7; read-out: minimum concentration of inhibition
Measurement kind: MIC

> print(dat)
                                   compound  measurement.kind  readout.value
1  CC(C)C1=C(C(=O)O)N2C(=O)[C@@H](NC(=O)Cc3cccs3)[C@H]2SC1 (relative stereo) [Example 8]               MIC       10 µg/mL
2  N[C@@H](C(=O)N[C@@H]1C(=O)N2C(C(=O)O)=C(C3CCCC3)CS[C@H]12)c1ccccc1 [Example 10]               MIC       10 µg/mL
3  CC(C)C1=C(C(=O)O)N2C(=O)[C@@H](NC(=O)[C@H](N)c3ccccc3)[C@H]2SC1 [Example 9]               MIC       10 µg/mL

====

# MIC annotations
Tested on: Staph. aureus oxford U.C. 1061 P(+)
Assay: MIC, diffusion method in gelose medium at pH 7 (Table I)
Assay type: cell-based
Settings: Staphylococcus aureus, UC1061; Staph. aureus oxford UC 1061, penicillin sensitive, pH 7; read-out: minimum concentration of inhibition
Measurement kind: MIC (µg/mL)

> print(dat)
                                   compound                         assay.system  measurement.kind  readout.value
1  CC(C)C1=C(C(=O)O)N2C(=O)[C@@H](NC(=O)Cc3ccc(N)cc3)[C@H]2SC1 (relative stereo) [Example 7]  Staph. aureus oxford U.C. 1061 P(+)               MIC              2
2  CC(C)C1=C(C(=O)O)N2C(=O)[C@@H](NC(=O)[C@H](N)c3ccccc3)[C@H]2SC1 [Example 9]  Staph. aureus oxford U.C. 1061 P(+)               MIC            0.4
3  CC(C)C1=C(C(=O)O)N2C(=O)[C@@H](NC(=O)Cc3ccc([N+](=O)[O-])cc3)[C@H]2SC1 (relative stereo) [Example 6]  Staph. aureus oxford U.C. 1061 P(+)               MIC            0.4
4  O=C(Cc1ccc([N+](=O)[O-])cc1)NC1C(=O)N2C(C(=O)O)=C(C3CCCC3)CSC12 (stereo not shown) [Example 11]  Staph. aureus oxford U.C. 1061 P(+)               MIC            0.2

====

Assay: oral toxicity in rats
Details: rat, in vivo
Measurement kind: LD50

> print(dat)
                               given.smiles  measurement.kind  readout.value
1  CC(C)C1=C(C(=O)O)N2C(=O)[C@@H](NC(=O)[C@H](N)c3ccccc3)[C@H]2SC1              LD50    > 800 mg/kg
